Origin of values: PubChem BioAssay (NCI)

System: HOP-92 NSCLC
assay comment: NCI tumour cell line growth inhibition, 48 h
TGI values for the compounds below.

# compound, qualifying sign, TGI [µM]
measured = [
    ("CC(=O)OC(Cc1ccc2ccccc2n1)(C(F)(F)F)C(F)(F)F", "=", 0.933),
    ("O=C1Nc2ccccc2Cn2c1cc1oc(-c3ccccc3)cc12", "=", 73.7),
    ("Clc1ccc(-c2nnc(-c3cccc4ccccc34)o2)cc1Cl", ">", 100),
    ("Cc1ccc(-n2cc(-c3ccc(Cl)cc3)c3c(N/N=C4\\SCC(=O)N4C)ncnc32)cc1", "=", 8.24),
    ("CN(C)c1ccc(C=C2C(=O)N(c3ccccc3)N(c3ccccc3)C2=O)cc1", "=", 65.1),
    ("O=[N+]([O-])c1ccc(Cl)c(C2CC(c3cccc4ccccc34)=Nc3ccccc3S2)c1 (centres undefined)", "=", 49.8),
    ("COc1cc2c(cc1OC)C(Sc1ccc(SC)cc1)c1c(nc(N)c(C#N)c1N)O2 (centres undefined)", "=", 3.86),
    ("CC(C)(C)c1ccc(OC(=O)Nc2ccc(O)c(C(=O)O)c2)cc1", ">", 100),
    ("COc1ccc2[nH]c3c(c2c1)CCN[C@]31CS[C@@H]2c3c(OC(C)=O)c(C)c4c(c3[C@H](COC1=O)N1[C@@H]2[C@H]2c3c(cc(C)c(OC)c3O)C[C@@H]([C@@H]1O)N2C)OCO4", "=", 0.0132),
]
